Measured values drawn from PubChem BioAssay AID463173 for this set.

test system: Wild type; assay: S. aureus survival, RN4220 and DeltatarO strains – OD600, teichoic acid synthesis inhibitors, primary screen (AID 463173); conditions: S. aureus RN4220 wild type/DeltatarO growth, OD600, 18 h, stronger effect = lower value, screened at 18.75 µg/mL (by protocol)
Hit rate of the full screen: of about 52,000 compounds, about 1,700 (3.3%) were called active. For the sample, actives were picked, then their nearest neighbours and some compounds at random.
Please provide measured survival for the entries that follow.
The response must be a number in % with no trailing unit.

Entry Cc1nn(Cc2ccccc2)c(C)c1NC(=O)c1cc(C(C)C)on1 : reported survival = ?
77

Entry Cc1cc2ccccc2n1-c1ccc(C(=O)N2CCC(C(=O)NCc3ccc(F)cc3)CC2)s1 : reported survival = ?
1

Entry COc1cc(NS(=O)(=O)c2ccc3[nH]c4c(c3c2)CCCC4)cc(OC)c1OC : reported survival = ?
129

Entry Cc1ccc(Cn2c(Cc3ccccc3)nc3ccccc32)cc1 : reported survival = ?
-1

Entry Cc1cc2ccccc2n1-c1ccc(C(=O)N2CCC(C(=O)NCc3ccc(Cl)cc3)CC2)s1 : reported survival = ?
63

Entry O=C(c1ccc(F)cc1)N1c2ncnn2C2(CCCCC2)[C@@H]2CCCC[C@@H]21 : reported survival = ?
82

Entry O=C(Nc1nc2ccc(S(=O)(=O)N3CCCC3)cc2s1)c1cccc(F)c1 : reported survival = ?
63

Entry CSc1ccccc1NC(=O)C1=CC(c2ccc3c(c2)OCO3)=NS(=O)(=O)N1C : reported survival = ?
87

Entry CCc1ccc(CNC(=O)C2CCN(C(=O)c3ccc(-n4c(C)cc5ccccc54)s3)CC2)cc1 : reported survival = ?
81

Entry Cc1cccc(Cn2c(CNC(=O)c3ccccc3)nc3ccccc32)c1 : reported survival = ?
84

----------
system: Wild type; experiment: S. aureus survival, RN4220 and DeltatarO strains – OD600, teichoic acid synthesis inhibitors, primary screen (AID 463173); settings: S. aureus RN4220 wild type/DeltatarO growth, OD600, 18 h, stronger effect = lower value, screened at 18.75 µg/mL (by protocol)
Screen size: about 52,000 compounds; about 1,700 (3.3%) were called active. Only a selection was taken, and actives are over-represented in it overall.
We label by threshold. Values of survival strictly beneath 90% are condition met. Values of 90% and up are condition not met.

Regarding O=C(NCC(c1cccnc1)N1CCN(Cc2ccccc2)CC1)C(=O)Nc1cccc(F)c1 (stereo not given) , kindly confirm whether its survival is beneath 90%.
condition not met

Regarding Cc1ccc2c(CC(=O)Nc3cccc(C(F)(F)F)c3)coc2c1 , kindly confirm whether its survival is beneath 90%.
condition met

Regarding CCn1cc(C(=O)NCc2ccc(C)cc2)c(=O)c2cc(S(=O)(=O)N3CCC(C)CC3)ccc21 , kindly confirm whether its survival is beneath 90%.
condition not met

Regarding CCCn1c2ccccc2c2cnn(CC(=O)N3CCC(C(=O)OCC)CC3)c(=O)c21 , kindly confirm whether its survival is beneath 90%.
condition met

----------
tested on: Wild type; test: S. aureus survival, RN4220 and DeltatarO strains – OD600, teichoic acid synthesis inhibitors, primary screen (AID 463173); details: S. aureus RN4220 wild type/DeltatarO growth, OD600, 18 h, screened at 18.75 µg/mL (by protocol)
Out of some 52,000 compounds screened, about 1,700 (3.3%) were called active. Cut-off read from the data, not from the text of the source: active = survival mostly below about 52% (no sharp cut-off); inactive = mostly above about 56%. What follows is part of a selection rich in actives, with near analogues and random picks from the rest.
Give your call using only these classes: active, inactive

Could you please tell me the result logged for COc1ccccc1N1CCN(CC(O)COc2cc(C)cc(C)c2)CC1 (stereo unspecified) in this assay?
inactive

Could you please tell me the result logged for COC(=O)c1ccc(C2c3c(-c4ccc(Br)cc4)n[nH]c3C(=O)N2c2ccc(Cl)cc2)cc1 (stereo unspecified) in this assay?
inactive

Could you please tell me the result logged for Cc1cc(SCC(=O)Nc2nsc(-c3ccc(C(C)(C)C)cc3)n2)nc2ccccc12 in this assay?
active

Could you please tell me the result logged for C=CCc1ccccc1OCC(O)CN1CCN(c2ccccc2)CC1 (stereo unspecified) in this assay?
inactive

Could you please tell me the result logged for O=C1c2[nH]nc(-c3ccc(F)cc3)c2C(c2ccccc2F)N1c1ccccc1 (stereo unspecified) in this assay?
active

Could you please tell me the result logged for COc1ccc(CCNc2nccn(-c3ccc(C)c(C)c3)c2=O)cc1OC in this assay?
inactive

Could you please tell me the result logged for Cc1ccc(-n2c(=O)c3cccnc3n2CC(=O)Nc2ccc(C)cc2Cl)cc1 in this assay?
inactive

Could you please tell me the result logged for COc1ccc(N2CCN(CC(O)COc3ccccc3C(C)(C)C)CC2)cc1 (stereo unspecified) in this assay?
active

Could you please tell me the result logged for COc1ccc(N2CCN(CC(O)COc3c(OC)cccc3OC)CC2)cc1 (stereo unspecified) in this assay?
inactive

Could you please tell me the result logged for Cc1ccc(-c2n[nH]c3c2C(c2cccc(O)c2)N(c2ccc(C(=O)O)cc2)C3=O)cc1 (stereo unspecified) in this assay?
inactive

Could you please tell me the result logged for CN(CC(=O)NCc1ccc(Cl)cc1)S(=O)(=O)c1ccc2c(c1)c(=O)n(C)c(=O)n2C in this assay?
inactive

Could you please tell me the result logged for CC(C)(C)c1ccc(-c2nc(NC(=O)CSc3ncnc4sc5c(c34)CCCC5)ns2)cc1 in this assay?
inactive

Could you please tell me the result logged for Cc1ccc(-c2nc(NC(=O)CSc3cc(C)c4ccccc4n3)ns2)cc1 in this assay?
inactive

Could you please tell me the result logged for COc1cccc(NC(=O)CSc2cc(C)c3ccccc3n2)c1 in this assay?
inactive

Could you please tell me the result logged for COc1ccc(-c2n[nH]c3c2C(c2ccc(O)cc2)N(c2ccc(Br)cc2)C3=O)cc1 (stereo unspecified) in this assay?
active

Could you please tell me the result logged for COc1ccc(N2CCN(CC(O)COc3ccc(C(C)(C)C)cc3)CC2)cc1 (stereo unspecified) in this assay?
inactive

Could you please tell me the result logged for CCOc1ccc(N(C)S(=O)(=O)c2ccc3c(c2)CCCN3C(C)=O)cc1 in this assay?
inactive

Could you please tell me the result logged for COc1ccc2c(C)cc(SCC(=O)Nc3nsc(-c4ccc(C(C)(C)C)cc4)n3)nc2c1 in this assay?
active

Could you please tell me the result logged for Cc1ccc(C(C)C)c(OCC(O)CN2CCN(c3ccccc3F)CC2)c1 (stereo unspecified) in this assay?
active

Could you please tell me the result logged for O=C1c2[nH]nc(-c3ccc(Br)cc3)c2C(c2cccc(O)c2)N1c1ccc(Cl)cc1 (stereo unspecified) in this assay?
active

Could you please tell me the result logged for COc1ccc(N2CCN(CC(O)COc3ccc(C(C)C)c(C)c3)CC2)cc1 (stereo unspecified) in this assay?
inactive

----------
test system: Wild type; experiment: S. aureus survival, RN4220 and DeltatarO strains – OD600, teichoic acid synthesis inhibitors, primary screen (AID 463173); settings: S. aureus RN4220 wild type/DeltatarO growth, OD600, 18 h, stronger effect = lower value, screened at 18.75 µg/mL (by protocol)
In all, about 52,000 compounds went through this assay and about 1,700 (3.3%) were called active. Many of the other results were omitted from the sample, so actives are more common in it than they were.
We label by threshold. Values of survival strictly beneath 70% are 1. Values of 70% and up are -1.

Regarding Cn1c(=O)c2c(nc(Oc3ccccc3)n2Cc2c(Cl)cccc2Cl)n(C)c1=O , kindly confirm whether its survival is beneath 70%.
-1

Regarding Cc1cccc(C(=O)Nc2nnc(S(=O)(=O)N(C)Cc3ccccc3)s2)c1 , kindly confirm whether its survival is beneath 70%.
1

Regarding CCCC(=O)NCC(c1ccc2c(c1)OCO2)N1CCN(c2ccccc2)CC1 (stereo not given) , kindly confirm whether its survival is beneath 70%.
-1

Regarding O=C(c1cc2ccccc2oc1=O)N1CCCCCC1 , kindly confirm whether its survival is beneath 70%.
-1

Regarding Cc1ccc(N2CCN(C(=O)c3c(C)oc4ncnc(N5CCOCC5)c34)CC2)c(C)c1 , kindly confirm whether its survival is beneath 70%.
-1

Regarding CN(Cc1ccccc1)S(=O)(=O)c1nnc(NC(=O)c2cccc(Cl)c2)s1 , kindly confirm whether its survival is beneath 70%.
1

Regarding O=C(NCc1ccccc1Cl)c1ccc(NC(=O)N2CCSc3ccccc32)cc1 , kindly confirm whether its survival is beneath 70%.
1

Regarding CCCCC(CC)Cn1c(Oc2ccccc2)nc2c1c(=O)n(C)c(=O)n2C (stereo not given) , kindly confirm whether its survival is beneath 70%.
1

Regarding COC(=O)c1scc(-c2ccc(C)cc2)c1S(=O)(=O)N1CCN(c2cccc(OC)c2)CC1 , kindly confirm whether its survival is beneath 70%.
1

Regarding O=C(Nc1ccc(C(=O)OCc2cc(=O)n3c4c(sc3n2)CCCC4)cc1)c1cccc(F)c1 , kindly confirm whether its survival is beneath 70%.
-1

----------
system: Wild type; assay: S. aureus survival, RN4220 and DeltatarO strains – OD600, teichoic acid synthesis inhibitors, primary screen (AID 463173); conditions: S. aureus RN4220 wild type/DeltatarO growth, OD600, 18 h, stronger effect = lower value, screened at 18.75 µg/mL (by protocol)
In all, about 52,000 compounds went through this assay and about 1,700 (3.3%) were called active. This excerpt belongs to a sample that is enriched for actives.
We label by threshold. Values of survival strictly beneath 60% are YES. Values of 60% and up are NO.

Regarding CC1CCN(S(=O)(=O)c2cc(C(=O)N3CCN(c4ccccc4F)CC3)n(C)c2)CC1 , kindly confirm whether its survival is beneath 60%.
NO

Regarding CCC(C)(C)C(=O)Nc1nnc(COC)s1 , kindly confirm whether its survival is beneath 60%.
NO

Regarding COC(=O)c1scc(-c2ccc(C)cc2)c1S(=O)(=O)N1CCN(c2ccccc2)CC1 , kindly confirm whether its survival is beneath 60%.
NO

Regarding O=C(NCc1ccccc1)C(=O)NCC(c1cccnc1)N1CCN(c2ccccc2)CC1 (stereo not given) , kindly confirm whether its survival is beneath 60%.
NO

Regarding COc1ccccc1N1CCN(C(=O)c2cc(S(=O)(=O)N3CCC(C)CC3)cn2C)CC1 , kindly confirm whether its survival is beneath 60%.
YES

Regarding CC(=O)c1cccc(NC(=O)CCCSc2nc(-c3ccco3)cc(C(F)(F)F)n2)c1 , kindly confirm whether its survival is beneath 60%.
YES

Regarding CC1CCN(S(=O)(=O)c2ccc(S(=O)(=O)N3CCCN(Cc4ccccc4)C3)cc2)CC1 , kindly confirm whether its survival is beneath 60%.
NO

Regarding Cn1cc(S(=O)(=O)N2CCCCCC2)cc1C(=O)N1CCN(c2ccc(F)cc2)CC1 , kindly confirm whether its survival is beneath 60%.
NO

Regarding COC(=O)c1cc(S(=O)(=O)N2CCN(c3ccc(F)cc3)CC2)cn1C , kindly confirm whether its survival is beneath 60%.
YES

Regarding CC(=O)NC1CC(=O)N(c2ccc3c(c2)OCCO3)C1 (stereo not given) , kindly confirm whether its survival is beneath 60%.
NO
